method: Solubility in 0.1 N HCl, PBS buffer, FaSSIF and FeSSIF
Type: physicochemical
experimental.conditions: FaSSIF, pH 6.5, fassif, thermodynamic from solid, Table 11; read-out: Solubility FaSSIF pH 6.5
Assign yes (1) whenever solubility at 10 min does not fall below 200 µg/mL; assign no (0) whenever it does.

// query Item CCCCCCCCOC(=O)Oc1cc(/C=C(\C#N)C(=O)N(CC)CC)cc([N+](=O)[O-])c1O [Compound 35] with solubility at 10 min of 200 µg/mL or above?
// result no (0)

// query Is reported solubility at 10 min greater than or equal to 200 µg/mL here: CCN(CC)C(=O)/C(C#N)=C/c1cc(O)c(O)c([N+](=O)[O-])c1 [entacapone]
// result no (0)

// query Entry CCN(CC)C(=O)/C(C#N)=C/c1cc(OC(=O)OCC2CCCCC2)c(O)c([N+](=O)[O-])c1 [Compound 57] : is its solubility at 10 min no less than 200 µg/mL?
// result no (0)

// query Please tell me: is the compound CCCC(C)OC(=O)Oc1cc(/C=C(\C#N)C(=O)N(CC)CC)cc([N+](=O)[O-])c1O (stereo not drawn) [Compound 63] at or over 200 µg/mL in terms of solubility at 10 min?
// result yes (1)

// query Confirm if solubility at 10 min reported for the compound CCCCC(CC)COC(=O)Oc1cc(/C=C(\C#N)C(=O)N(CC)CC)cc([N+](=O)[O-])c1O (stereo not drawn) [Compound 15] is 200 µg/mL or above.
// result no (0)

// query Decide: solubility at 10 min of CCC(CC)OC(=O)Oc1cc(/C=C(\C#N)C(=O)N(CC)CC)cc([N+](=O)[O-])c1O [Compound 10] >= 200 µg/mL?
// result yes (1)

----------
Hi there, I'd appreciate the recorded chromatographic logD for every entry that follows.
method: Log D (pH 7.4) by isocratic HPLC
Type: physicochemical
experimental.conditions: YMC Pro C18 column, phosphate buffer pH 7.4/acetonitrile 45/55
Enter a number only.

// query Return value of chromatographic logD for input CCN(CC)C(=O)/C(C#N)=C/c1cc(OC(=O)OC2CC3CCC2(C)C3(C)C)c(O)c([N+](=O)[O-])c1 (stereo not shown) , no commentary.
// result 2.8

// query Note down chromatographic logD recorded for C=CCOC(=O)Oc1cc(/C=C(\C#N)C(=O)N(CC)CC)cc([N+](=O)[O-])c1O
// result 1

// query Determine from records and report chromatographic logD for CCN(CC)C(=O)/C(C#N)=C/c1cc(OC(=O)OCC(C)C)c(O)c([N+](=O)[O-])c1
// result 1.4

// query Hello, please tell me recorded chromatographic logD for this one: CCCCCCCCOC(=O)Oc1cc(/C=C(\C#N)C(=O)N(CC)CC)cc([N+](=O)[O-])c1O
// result 3.1

// query Check the records and state chromatographic logD for CCN(CC)C(=O)/C(C#N)=C/c1cc(OC(=O)OCc2ccc3c(c2)OCO3)c(O)c([N+](=O)[O-])c1
// result 0.9

// query Give recorded chromatographic logD. CCN(CC)C(=O)/C(C#N)=C/c1cc(OC(=O)OC(C)C)c(O)c([N+](=O)[O-])c1
// result 1

----------
method: Solubility in 0.1 N HCl, PBS buffer, FaSSIF and FeSSIF
Format: physicochemical
experimental.conditions: FaSSIF, pH 6.5, fassif, thermodynamic from solid, fasting state fluid, ambient temperature; read-out: Solubility FaSSIF Ph 6.5
I'd appreciate it if you could supply solubility at 10 min values for the items below.
Enter your answer as a number in µg/mL; do not include the unit.

// query Given the molecule CCN(CC)C(=O)/C(C#N)=C/c1cc(OC(=O)OCc2ccc3c(c2)OCO3)c(O)c([N+](=O)[O-])c1 [Compound 131] , write its reported solubility at 10 min.
// result 960

// query Look up and state reported solubility at 10 min for CCN(CC)C(=O)/C(C#N)=C/c1cc(OC(=O)OC(C)C)c(O)c([N+](=O)[O-])c1 [Compound 7]
// result 750

// query Return reported solubility at 10 min. Input molecule: CCN(CC)C(=O)/C(C#N)=C/c1cc(OC(=O)OC(C)c2ccccc2)c(O)c([N+](=O)[O-])c1 (stereo not drawn) [Compound 137]
// result 150

// query Consider the molecule CCCCCCCCOC(=O)Oc1cc(/C=C(\C#N)C(=O)N(CC)CC)cc([N+](=O)[O-])c1O [Compound 35] and give its recorded solubility at 10 min.
// result 150

// query # return recorded solubility at 10 min for entry CCCOC(=O)Oc1cc(/C=C(\C#N)C(=O)N(CC)CC)cc([N+](=O)[O-])c1O [Compound 41]
// result 290

----------
method: Permeability in Caco-2 cells, apical to basolateral
Format: in vitro ADME
Parameters: dose or concentration left out as unconfirmed
experimental.conditions: human; 21d Caco-2 monolayer, apical pH 6.5 to basolateral pH 7.4, 60 minutes
reported.metric: Papp A→B at 60 min (×10⁻⁶ cm/s)
Express the result in ×10⁻⁶ cm/s but write the number alone.

// query Return reported Papp A→B at 60 min. Input compound: CCN(CC)C(=O)/C(C#N)=C/c1cc(OC(=O)OC2CCCCC2)c(O)c([N+](=O)[O-])c1 [Compound 51]
// result 45

// query Give me measured Papp A→B at 60 min, please, for this compound: CCOC(=O)CC(C)OC(=O)Oc1cc(/C=C(\C#N)C(=O)N(CC)CC)cc([N+](=O)[O-])c1O (stereo not drawn) [Compound 34]
// result 14.6

// query Tell me Papp A→B at 60 min reported for CCN(CC)C(=O)/C(C#N)=C/c1cc(OC(=O)OCCc2cccs2)c(O)c([N+](=O)[O-])c1 [Compound 61]
// result 36

----------
method: Permeability in Caco-2 cells, apical to basolateral
Format: in vitro ADME
Set-up: dose or concentration left out as unconfirmed
experimental.conditions: human; 21d Caco-2 monolayer, apical pH 6.5 to basolateral pH 7.4, 60 minutes
reported.metric: Papp A→B at 60 min

// query Using known records, supply Papp A→B at 60 min for CCN(CC)C(=O)COC(=O)Oc1cc(/C=C(\C#N)C(=O)N(CC)CC)cc([N+](=O)[O-])c1O
// result < 5.1 ×10⁻⁶ cm/s

// query Identify measured Papp A→B at 60 min associated with CCCCCOC(=O)Oc1cc(/C=C(\C#N)C(=O)N(CC)CC)cc([N+](=O)[O-])c1O
// result < 5.1 ×10⁻⁶ cm/s

// query Fill in Papp A→B at 60 min for record C#CCCOC(=O)Oc1cc(/C=C(\C#N)C(=O)N(CC)CC)cc([N+](=O)[O-])c1O
// result 4.9 ×10⁻⁶ cm/s
